# procedure_details: Pharmacokinetic test in SD rats
# Assay type: in vivo
# measurement_parameters: male, rat, plasma, iv, 1 mg/kg
measured_attribute: AUC(0-t) (ng·h/mL)

In [3]: df
Out[3]:
                                   compound  measured_attribute  assay_result
0  O=C(O)c1ccc2c(c1)Oc1ccc(OCc3c(-c4ccccc4OC(F)(F)F)noc3C3CC3)nc1C1(CC1)C2 [Example 3]            AUC(0-t)          1730

* * *

# procedure_details: Liver microsome stability test
# Assay type: in vitro ADME
# measurement_parameters: pH 7.4; rat liver microsomes, compound 1 μM, 0.5 mg/mL microsome, 37° C.
// values below are reported half-life at 1 μM
measured_attribute: half-life at 1 μM

>>> df
                                   compound  measured_attribute  assay_result
0  O=C(O)c1ccc2c(c1)Oc1ccc(OCc3c(-c4ccccc4OC(F)(F)F)noc3C3CC3)nc1C1(CC1)C2 [Example 3]   half-life at 1 μM      26.8 min
1  O=C(O)c1ccc2c(c1)Oc1ccc(OCc3c(-c4ccc(Cl)cc4Cl)noc3C3CC3)nc1C1(CC1)C2 [Example 5]   half-life at 1 μM        25 min
2  O=C(O)c1ccc2c(c1)Oc1ccc(OCc3c(-c4ccccc4OC(F)(F)F)noc3C3CC3)nc1CC2 [Example 2]   half-life at 1 μM      28.8 min
